- Tested on: myeloid leukemia patient primary cells Pat.1
- Experimental details: cell viability (% survival relative to DMSO control); higher = less cytotoxic
- Test settings: 10 nM; 72 h
Kindly state cell viability for each of the entries shown.
Note: unit % is implicit; provide only the numeric part.

Please fill in: cell viability reported for "Cc1c2c(=O)n(-c3ccccc3Cl)[nH]c2cc(=O)n1Cc1ccccn1" = 89.9

Please fill in: cell viability reported for "CN(CCOc1ccc(Cc2sc(O)nc2O)cc1)c1ccccn1" = 72.6

Please fill in: cell viability reported for "CC(C)(C)c1ccc(S(=O)(=O)NCc2ccc(C(=O)Nc3cccnc3)cc2)cc1" = 82

Please fill in: cell viability reported for "CO[C@H]1C[C@@H]2CC[C@@H](C)[C@@](O)(O2)C(=O)C(=O)N2CCCC[C@H]2C(=O)O[C@H]([C@H](C)C[C@@H]2CC[C@@H](OC(=O)C(C)(CO)CO)[C@H](OC)C2)CC(=O)[C@H](C)/C=C(\C)[C@@H](O)[C@@H](OC)C(=O)[C@H](C)C[C@H](C)/C=C/C=C/C=C/1C" = 47.4

Please fill in: cell viability reported for "CC(=O)Nc1nc(C)c(-c2ccc(Cl)c(S(=O)(=O)NCCO)c2)s1" = 67.2

These entries and their values trace back to the supplement of paper PMC8671470.
